// data source = ChEMBL document CHEMBL2417494

# Assay Explanation: Permeability across apical to basolateral side in human Caco2 cells by LC/MS analysis
# Format: ADME, cell-based
# Experimental Conditions: Caco-2, read-out: permeability
Property Measured: Papp A→B

1) CCOC(=O)c1cc(C#N)c(N2CCC(C(=O)NS(=O)(=O)Cc3ccc(C(C)C)cc3)CC2)nc1C ... 40 ×10⁻⁶ cm/s
2) CCOC(=O)c1cc(C#N)c(N2CC(C(=O)NS(=O)(=O)c3ccc(Cl)s3)C2)nc1C ... 0.2 ×10⁻⁶ cm/s
3) CCOC(=O)c1cc(C#N)c(N2CC(C(=O)NS(=O)(=O)Cc3ccccc3)C2)nc1C ... 0.3 ×10⁻⁶ cm/s
4) CCOC(=O)c1cc(C#N)c(N2CCC(C(=O)NS(=O)(=O)Cc3ccc(F)cc3F)CC2)nc1C ... 5 ×10⁻⁶ cm/s
5) CCOC(=O)c1cc(C#N)c(N2CCC(C(=O)NS(=O)(=O)Cc3ccc(OC)cc3)CC2)nc1C ... 40 ×10⁻⁶ cm/s
6) CCOC(=O)c1cc(C#N)c(N2CC(C(=O)NS(=O)(=O)CC3CCCCC3)C2)nc1C ... 3 ×10⁻⁶ cm/s
7) CCOC(=O)c1cc(C#N)c(N2CC(C(=O)NS(=O)(=O)Cc3ccc(C)cc3)C2)nc1C ... 0.6 ×10⁻⁶ cm/s
8) CCOC(=O)c1cc(C#N)c(N2CCC(C(=O)NS(=O)(=O)Cc3ccc(F)cc3)CC2)nc1C ... 8 ×10⁻⁶ cm/s
9) CCOC(=O)c1cc(C#N)c(N2CC(C(=O)NS(=O)(=O)c3ccccc3)C2)nc1C ... 0.2 ×10⁻⁶ cm/s
